Each recorded value in this set is attributed to ChEMBL document CHEMBL1201862.

Consider the following compounds; for each one, report its GI50.
# Test system: HOP-92
# Run Description: NCI tumour cell line growth inhibition, 48 h
The source made the active and inactive calls. Cut-off read from the data, not from the text of the source: active = GI50 up to about 1.1 µM and inactive = higher.

(Q) Identify the measured GI50 of "O=C(NP(=O)(N1CC1)N1CC1)c1cc(I)ccc1I" for HOP-92.
(A) 59.7 µM (inactive)

(Q) Identify the measured GI50 of "Cc1c(N2C(=O)/C(=C/c3ccc(Cl)cc3)N=C2c2ccccc2)c(=O)n(-c2ccccc2)n1C" for HOP-92.
(A) 18.7 µM (inactive)

(Q) Identify the measured GI50 of "O=C1c2ccccc2C(=O)c2c1sc1nc3ccccc3n21" for HOP-92.
(A) 10.4 µM (inactive)

(Q) Identify the measured GI50 of "COC(=O)c1s/c(=N\C(=S)N(C)C)n(-c2ccccc2)c1C(=O)OC" for HOP-92.
(A) > 100 µM (inactive)

(Q) Identify the measured GI50 of "Cc1c(C(=O)/C=C/c2ccccc2Cl)[n+]([O-])c2ccccc2[n+]1[O-]" for HOP-92.
(A) 15.3 µM (inactive)

###

# Test system: HL-60
# Run Description: NCI tumour cell line growth inhibition, 48 h
The source made the active and inactive calls. Rule as the data show it: active = GI50 up to about 1.1 µM and inactive = higher.
Readout Label: GI50

(Q) Which GI50 value belongs to "Cc1ccc(/C=C2\Cc3c(C)cc(C)cc3C2=O)c(C(=O)O)c1" ?
(A) 23.1 µM (inactive)

(Q) Which GI50 value belongs to "Cc1nc(OCc2ccccc2)c2ncn(CCO)c2n1" ?
(A) > 100 µM (inactive)

(Q) Which GI50 value belongs to "CSCC[C@H]1C(=O)N=C(N)N1C(=O)OCc1ccccc1" ?
(A) 14.5 µM (inactive)

(Q) Which GI50 value belongs to CCOP(=O)(CC1OC(CO)C(O)C1O)OCC (stereo not given) ?
(A) > 100 µM (inactive)

(Q) Which GI50 value belongs to "c1ccc(N/N=C2\NN=C(c3ccccc3)CS2)cc1" ?
(A) 3.58 µM (inactive)

(Q) Which GI50 value belongs to O=C1/C(=C/c2ccc(Cl)cc2)Oc2cc(O)ccc21 [6-HYDROXY-4'-CHLORO AURONE] ?
(A) 18.1 µM (inactive)

(Q) Which GI50 value belongs to O=c1s[s+]([O-])c2ccccc12 (stereo not given) ?
(A) 46.9 µM (inactive)

(Q) Which GI50 value belongs to CC(C)N(C(=O)C12C3C4C1C1C2C3C41I)C(C)C (stereo not given) ?
(A) > 100 µM (inactive)

(Q) Which GI50 value belongs to O=C(O)c1cc2c(cc1CC(Cc1ccc3c(c1)CCC3)C(=O)O)CCC2 (stereo not given) ?
(A) > 100 µM (inactive)

(Q) Which GI50 value belongs to O=C1C2C(C(=O)N1c1ccccc1)C1([N+](=O)[O-])C=C3c4ccccc4N(C(=O)c4ccccc4)C32C2C(=O)N(c3ccccc3)C(=O)C21 (stereo not given) ?
(A) > 100 µM (inactive)

###

# System: OVCAR-3
# Run Description: NCI tumour cell line growth inhibition, 48 h
Active and inactive are the calls of the source. Cut-off read from the data, not from the text of the source: active = GI50 up to about 1.1 µM and inactive = higher. Non-standard residues stand in square brackets, D forms with d. Residues, ends and D or L forms follow the SMILES beside them. *: point of attachment. hSer = N[CH](CCO)C(=O)O; Boc = CC(C)(C)OC(=O)*
Consider the following compounds; for each one, report its GI50.

(Q) Which GI50 value belongs to CC1NOC(=O)C1/N=N/c1ccccc1Br (stereo unspecified) ?
(A) 20.5 µM (inactive)

(Q) Which GI50 value belongs to "O=C1OC(=O)c2c1cc1cc3c(cc1c2-c1ccc2c(c1)OCO2)OCO3" ?
(A) > 100 µM (inactive)

(Q) Which GI50 value belongs to "Oc1ccccc1/C=N/N1C(=S)N(C23CC4CC(CC(C4)C2)C3)C(=N\c2ccccc2)/C1=N/c1ccccc1" ?
(A) > 100 µM (inactive)

(Q) Which GI50 value belongs to "COc1cccc(C(=O)C#Cc2cnc(OC)nc2OC)c1" ?
(A) 1.81 µM (inactive)

(Q) Which GI50 value belongs to "O=[N+]([O-])/C(C(Cl)=C(Cl)Cl)=C(\NCc1ccccc1)Sc1ccccc1" ?
(A) 17.6 µM (inactive)

(Q) Which GI50 value belongs to COCCC(NC(=O)C(CC(C)C)NC(=O)OC(C)(C)C)C(N)=O (stereo not drawn) (Boc-Leu-[hSer](Me)-NH2; configuration not given here) ?
(A) > 100 µM (inactive)

(Q) Which GI50 value belongs to CC1(c2ccc(Cl)cc2)c2ccccc2C(=O)N1CCCN1C(=O)c2ccccc2C1=O (stereo unspecified) ?
(A) 32.7 µM (inactive)

(Q) Which GI50 value belongs to COc1ccc2cc(C(C)C(=O)N3CCOC3=O)ccc2c1 (stereo unspecified) ?
(A) > 100 µM (inactive)

(Q) Which GI50 value belongs to O=C(NNc1ccc([N+](=O)[O-])cc1)C1OC(CO)C(O)C1O (stereo unspecified) ?
(A) > 100 µM (inactive)

(Q) Which GI50 value belongs to "CN(C)CN1C(=O)/C(=N\n2c(S)nnc2-c2ccncc2)c2ccccc21" ?
(A) 66.5 µM (inactive)

(Q) Which GI50 value belongs to "COc1ccc(Nc2nc3ccccc3nc2C(=O)O)cc1" ?
(A) 65.9 µM (inactive)

(Q) Which GI50 value belongs to "C/C(=N\NC(=O)N/N=C(\C)c1ccccn1)c1ccccn1" ?
(A) 45.1 µM (inactive)

(Q) Which GI50 value belongs to "CCCCCCCCCCCCCCCCP(=O)([O-])OCC[N+](C)(C)C" ?
(A) 17.1 µM (inactive)

(Q) Which GI50 value belongs to N/N=C1/C(=O)N(c2ccc(Cl)cc2)C(=O)C(=O)C1c1nc2ccccc2s1 (stereo unspecified) ?
(A) > 100 µM (inactive)

(Q) Which GI50 value belongs to "Fc1cccc(/C=N/C23CC4CC(CC(C4)C2)C3)c1" ?
(A) > 100 µM (inactive)

(Q) Which GI50 value belongs to "C/C(=C\Cc1ccc(F)cc1)CCCCCC/C(C)=C/Cc1ccc(F)cc1" ?
(A) 22.9 µM (inactive)

(Q) Which GI50 value belongs to "O=C(NNC(=O)c1ccccc1O)c1ccc(O)cc1" ?
(A) 38.4 µM (inactive)

(Q) Which GI50 value belongs to "COc1ccc2c(-c3ccc(O)cc3)c(Oc3ccc(Cl)cc3)c(=O)oc2c1" ?
(A) 3.57 µM (inactive)

(Q) Which GI50 value belongs to NC(CCCCNCc1ccccc1)C(=O)O (stereo unspecified) ?
(A) > 100 µM (inactive)

(Q) Which GI50 value belongs to "C=CC(C)(C)c1cc([C@@H]2COc3cc(O)ccc3C2=O)c(O)c(O)c1OC" ?
(A) 15.8 µM (inactive)

(Q) Which GI50 value belongs to Cc1ccc(C)n1-c1ccccc1C1C=Cn2c3c1c(=O)c(OC(C)C)c(OC(C)C)c-3n[nH]c2=O (stereo unspecified) ?
(A) 35.5 µM (inactive)

(Q) Which GI50 value belongs to "CCOC(=O)c1sc2c(c1OC(=O)c1ccc(OC)cc1)c(=O)n(-c1ccccc1)c(=S)n2-c1ccccc1" ?
(A) > 100 µM (inactive)

(Q) Which GI50 value belongs to "COc1ccccc1C[C@@H]1OC2(C=CC(=O)C=C2)O[C@H]1Cc1ccccc1OC" ?
(A) 8.09 µM (inactive)

(Q) Which GI50 value belongs to COC(C(O)c1ccc2c(c1)OCO2)P(=O)(c1ccccc1)c1ccccc1 (stereo unspecified) ?
(A) 15.1 µM (inactive)

(Q) Which GI50 value belongs to "C=C1C(=O)O[C@H]2[C@H]3O[C@@H](C[C@@H]12)[C@](C)(O)CCCC(C)=CCC[C@H]3C" ?
(A) 13.9 µM (inactive)

(Q) Which GI50 value belongs to C=CCN1C(N)=C(C#N)C(C#N)(C#N)C1CCC (stereo unspecified) ?
(A) > 100 µM (inactive)

(Q) Which GI50 value belongs to "Cc1c(N2C(=O)/C(=C/c3ccc(Cl)cc3)N=C2c2ccccc2)c(=O)n(-c2ccccc2)n1C" ?
(A) 27.1 µM (inactive)

(Q) Which GI50 value belongs to CC(NC(=O)C(OC(=O)C(C)NC(=O)OC(C)(C)C)C(C)C)C(=O)OC(C(=O)O)C(C)C (stereo unspecified) ?
(A) > 100 µM (inactive)

(Q) Which GI50 value belongs to "COc1ccc(Oc2ccc3cc4c(cc3c2O)OCO4)c2cc(C)oc12" ?
(A) 28.8 µM (inactive)

(Q) Which GI50 value belongs to "C/C(=N\NC(=O)c1ccncc1)c1sc(-n2nc(-c3ccccc3)cc2-c2ccccc2)nc1C" ?
(A) 25.1 µM (inactive)

(Q) Which GI50 value belongs to "Cc1cn2c(/C=N/NC(=N)N)c(-c3ccc(Cl)c([N+](=O)[O-])c3)nc2s1" ?
(A) 1.13 µM (inactive)

(Q) Which GI50 value belongs to COc1ccc(C2ON(c3cccc(C)n3)CC=C2C)cc1 (stereo unspecified) ?
(A) > 100 µM (inactive)

(Q) Which GI50 value belongs to OCC1COc2cc(Cl)c(Cl)cc2O1 (stereo unspecified) ?
(A) > 10 µM (inactive)

(Q) Which GI50 value belongs to "CC1(O)C=CC(=O)C=C1" ?
(A) 24.2 µM (inactive)

(Q) Which GI50 value belongs to "Nc1cc(O)c2cc(/N=N/c3ccc(/N=N/c4ccc(/N=N/c5ccc6cc(S(=O)(=O)O)cc(S(=O)(=O)O)c6c5)c5ccccc45)c4cc(S(=O)(=O)O)ccc34)c(S(=O)(=O)O)cc2c1" ?
(A) 67.6 µM (inactive)

(Q) Which GI50 value belongs to "c1ccc(-c2c(-c3[nH]c4ccccc4c3-c3ccccc3)[nH]c3ccccc23)cc1" ?
(A) 2.3 µM (inactive)

(Q) Which GI50 value belongs to "O=C(O)/C=C/c1c[nH]c(=O)[nH]c1=O" ?
(A) > 250 µM (inactive)

(Q) Which GI50 value belongs to "COc1ccc2c(c1)C(N)=C(c1ccccc1OC)C2=O" ?
(A) > 100 µM (inactive)

(Q) Which GI50 value belongs to "CC(=O)CC(=O)N(CCN(C(=O)CC(C)=O)c1ccccc1)c1ccccc1" ?
(A) > 100 µM (inactive)

(Q) Which GI50 value belongs to "CC1=C(C(=O)NCc2ccccc2)C(c2ccc(Cl)c(Cl)c2)C(C(=O)NCc2ccccc2)=C(C)N1" ?
(A) > 100 µM (inactive)

(Q) Which GI50 value belongs to "CC(=O)NNc1nc(C)c(C(=O)NNC(=O)C(=O)Nc2ccc(C)c(C)c2)s1" ?
(A) 21.3 µM (inactive)
